experimental.target: Cbl-b (Homo sapiens (Human))
Sequence (Q13191 40-426): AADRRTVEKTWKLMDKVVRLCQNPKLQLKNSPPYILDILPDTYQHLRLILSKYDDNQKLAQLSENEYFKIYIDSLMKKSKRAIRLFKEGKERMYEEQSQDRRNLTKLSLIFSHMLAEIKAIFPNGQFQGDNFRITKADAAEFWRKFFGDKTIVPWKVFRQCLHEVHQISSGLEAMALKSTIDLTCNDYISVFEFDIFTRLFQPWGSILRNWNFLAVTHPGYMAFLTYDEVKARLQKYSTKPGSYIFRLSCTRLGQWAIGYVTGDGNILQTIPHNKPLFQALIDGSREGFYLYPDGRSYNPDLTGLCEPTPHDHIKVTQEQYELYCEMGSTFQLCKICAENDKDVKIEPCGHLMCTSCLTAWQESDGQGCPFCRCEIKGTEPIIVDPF
assay.notes: Cbl-b LCK Ub TR-FRET assay (Cbl-b Lck HTRF)
Assay type: biochemical
measurement.conditions: ratio C-cbl Lck HTRF IC50 / Cbl-b Lck HTRF IC50
measure.name: (fold-selectivity) Cbl-b and C-Cbl Selectivity (x)

INSERT INTO results (compound, experimental_target, reported_result) VALUES
  ('Cn1cnnc1[C@@H](c1cccc(N2Cc3c(cc(CNCC4(C)CC4)cc3C(F)(F)F)C2=O)c1)C1COC1 (single isomer, unassigned) [Compound 465]', 'Cbl-b (Homo sapiens (Human))', 1.8),
  ('C[C@H](NC1(C)CCC1)c1cc2c(c(C(F)F)c1)CN(c1cccc([C@H](c3nncn3C)C3COC3)c1)C2=O (single isomer, unassigned) [Compound 413]', 'Cbl-b (Homo sapiens (Human))', 1.6),
  ('CO[C@H]1C[C@](c2cccc(N3Cc4c(cc(CNCCOC(F)F)cc4C(F)(F)F)C3=O)c2)(c2nncn2C)C1 [Compound 491]', 'Cbl-b (Homo sapiens (Human))', 4.3),
  ('Cn1cnnc1[C@H](c1cccc(N2Cc3c(cc([C@H](NC4(C)CCC4)C4CC4)cc3C(F)(F)F)C2=O)c1)C1COC1 (single isomer, unassigned) [Compound 456]', 'Cbl-b (Homo sapiens (Human))', 6.5),
  ('CO[C@H]1C[C@](c2cccc(N3Cc4c(cc(CN[C@@H]5C[C@H]5C(C)(F)F)cc4C(F)(F)F)C3=O)c2)(c2nncn2C)C1 (single isomer, unassigned) [Compound 506]', 'Cbl-b (Homo sapiens (Human))', 8.0);

a. Cn1cnnc1[C@@H](c1cccc(N2Cc3c(cc(CNCC(C)(C)C)cc3C(F)(F)F)C2=O)c1)C1COC1 (single isomer, unassigned) [Compound 468]
b. CO[C@H]1C[C@](c2cccc(N3Cc4c(cc(CNCC5(C)CC5)cc4C(F)(F)F)C3=O)c2)(c2nncn2C)C1 [Compound 474]
c. CO[C@H]1C[C@](c2cccc(N3Cc4c(cc(CN5CC(O)C5)cc4C(F)(F)F)C3=O)c2)(c2nncn2C)C1 [Compound 422]
Give the ascending ranking of the items by reported (fold-selectivity) Cbl-b and C-Cbl Selectivity. To answer, write out the labels according to the requested order.
a, b, c

1. Cn1cnnc1[C@H](c1cccc(N2Cc3c(cc(CNC4(C)CCC4)cc3C(F)(F)F)C2=O)c1)C1(O)CCC1 (single isomer, unassigned) [Compound 428]
2. Cn1cnnc1C1(c2cccc(N3Cc4c(cc(C(CF)NC5(C)CCC5)cc4C(F)(F)F)C3=O)c2)CCC1 (stereo not shown) [Compound 453]
Kindly identify the item with the lower (fold-selectivity) Cbl-b and C-Cbl Selectivity figure among these two: 1 and 2 // output: label of the selected item
2
(2: 1.7 x, 1: 3.8 x)

I. CO[C@H]1C[C@](c2cccc(N3Cc4c(cc(CNCC5CC5(F)F)cc4C(F)(F)F)C3=O)c2)(c2nncn2C)C1 (stereo partly shown) [Compound 482]
II. Cn1cnnc1C(c1cccc(N2Cc3c(cc(CNC4(C)CCC4)cc3C(F)(F)F)C2=O)c1)C1(F)CSC1 (stereo not shown) [Compound 462]
Lower value of (fold-selectivity) Cbl-b and C-Cbl Selectivity belongs to which: I or II ? Refer to your chosen item by its label in the answer.
II

P. CO[C@H]1C[C@](c2cccc(N3Cc4c(cc(CNC(C)C)cc4C(F)(F)F)C3=O)c2)(c2nncn2C)C1 [Compound 419]
Q. CO[C@H]1C[C@](c2cccc(N3Cc4c(cc(CNCC5CC5)cc4C(F)(F)F)C3=O)c2)(c2nncn2C)C1 [Compound 415]
Which item exceeds the other in (fold-selectivity) Cbl-b and C-Cbl Selectivity, P or Q ? Give the label under which the chosen entry appears.
P

P. CCCNCc1cc2c(c(C(F)(F)F)c1)CN(c1cccc([C@]3(c4nncn4C)C[C@H](OC)C3)c1)C2=O [Compound 511]
Q. COCCC1(NCc2cc3c(c(C(F)(F)F)c2)CN(c2cccc([C@]4(c5nncn5C)C[C@H](OC)C4)c2)C3=O)CCC1 [Compound 493]
Between item P and item Q , which reported (fold-selectivity) Cbl-b and C-Cbl Selectivity is smaller? Record your answer as the label of the chosen record.
P

a. CO[C@H]1C[C@](c2cccc(N3Cc4c(cc(CNCC5CCC5)cc4C(F)(F)F)C3=O)c2)(c2nncn2C)C1 [Compound 416]
b. CO[C@H]1C[C@](c2cccc(N3Cc4c(cc(CNCC5(O)CC5)cc4C(F)(F)F)C3=O)c2)(c2nncn2C)C1 [Compound 473]
Which record would sort first by descending (fold-selectivity) Cbl-b and C-Cbl Selectivity, a or b ? Identify your selection by its label.
b
(b: 3.6 x, a: 1.5 x)
